Origin of the recorded values: patent US8163909B2

# SYSTEM UNDER TEST: Beta Secretase enzyme (BACE) (Homo sapiens)
# Sequence (P56817 46-501): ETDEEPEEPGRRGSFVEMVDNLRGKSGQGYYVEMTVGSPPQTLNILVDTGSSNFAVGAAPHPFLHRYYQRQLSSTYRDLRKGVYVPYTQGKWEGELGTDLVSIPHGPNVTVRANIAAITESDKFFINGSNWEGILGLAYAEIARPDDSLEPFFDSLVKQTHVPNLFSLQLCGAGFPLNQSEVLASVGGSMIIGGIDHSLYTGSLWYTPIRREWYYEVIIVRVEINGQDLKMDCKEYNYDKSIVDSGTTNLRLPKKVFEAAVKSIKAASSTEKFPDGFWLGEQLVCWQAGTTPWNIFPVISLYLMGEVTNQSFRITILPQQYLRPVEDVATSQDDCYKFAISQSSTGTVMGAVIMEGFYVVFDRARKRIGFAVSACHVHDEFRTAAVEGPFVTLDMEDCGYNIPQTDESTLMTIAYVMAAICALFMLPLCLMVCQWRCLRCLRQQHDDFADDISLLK
# PROTOCOL SUMMARY: In vitro enzymatic BACE FRET (fluorescence resonance energy transfer) assay;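 further: fluorescence read after 1 h with 50 nM quenched peptide substrate spanning the BACE cleavage site, in pH 4.2 acetate buffer containing 10% DMSO and nonionic detergent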
# Type: biochemical
# CONDITION PARAMETERS: BACE enzyme assay; read-out: BACE1 FRET assay
In this section we review reported IC50 values for a set of molecules.
PROPERTY NAME: IC50 (nM)

COMPOUND: COCC(=O)N[C@@H](Cc1cc(F)cc(F)c1)[C@H](O)CN[C@H]1CC2(CCC2)Oc2c1cc(CC(C)(C)C)nc2Nc1ccncc1
READOUT UNITS: nM
MEASURED: 53
//
COMPOUND: COCC(=O)N[C@@H](Cc1cccc(F)c1)[C@H](O)CN[C@H]1CC2(CCC2)Oc2c(-c3ccncc3)cc(CC(C)(C)C)cc21
READOUT UNITS: nM
MEASURED: 9
//
COMPOUND: COCC(=O)N[C@@H](Cc1cccc(F)c1)[C@H](O)CN[C@H]1CC2(CCC2)Oc2c1cc([C@H](n1ccnc1)C(C)(C)C)cc2-n1ccnc1
READOUT UNITS: nM
MEASURED: 12000
//
COMPOUND: COCC(=O)N[C@@H](Cc1cccc(F)c1)[C@H](O)CN[C@H]1CC2(CCC2)Oc2c(-c3ccncc3)cc(CC(C)(C)F)cc21
READOUT UNITS: nM
MEASURED: 15
//
COMPOUND: CC(=O)N[C@@H](Cc1cc(F)cc(F)c1)[C@H](O)CN[C@H]1CC2(CCC2)Oc2c1cc(CC(C)(C)C)nc2-c1cscn1
READOUT UNITS: nM
MEASURED: 8
//
COMPOUND: CC(C)Cc1cnc2c(c1)[C@@H](NC[C@@H](O)[C@H](Cc1ccc3c(c1)OCO3)NC(=O)[C@H]1CCCO1)CC1(CCC1)O2
READOUT UNITS: nM
MEASURED: 44
//
COMPOUND: COCC(=O)N[C@@H](Cc1cc(F)cc(F)c1)[C@H](O)CN[C@H]1CC2(CCC2)Oc2c1cc(CC(C)(C)C)nc2-n1ccnc1
READOUT UNITS: nM
MEASURED: 20
//
COMPOUND: COCC(=O)N[C@@H](Cc1cc(F)cc(F)c1)[C@H](O)CN[C@H]1CC2(CCC2)Oc2c(-c3ccncc3)cc(Cl)cc21
READOUT UNITS: nM
MEASURED: 49
//
COMPOUND: COCC(=O)N[C@@H](Cc1ccc2c(c1)OCO2)[C@H](O)CN[C@H]1CC2(CCC2)Oc2ccc(C[C@H](C)F)cc21
READOUT UNITS: nM
MEASURED: 3790
//
COMPOUND: CC(=O)N[C@@H](Cc1cccc(F)c1)[C@H](O)CN[C@H]1CC2(CCC2)Oc2c1cc(CC(C)(C)C)nc2-c1ccncc1
READOUT UNITS: nM
MEASURED: 12
//
COMPOUND: CC(C)Cc1cnc2c(c1)[C@@H](NC[C@@H](O)[C@H](Cc1ccc3c(c1)OCO3)NC(=O)[C@H](C)F)CC1(CCC1)O2
READOUT UNITS: nM
MEASURED: 49
//
COMPOUND: COCC(=O)N[C@@H](Cc1ccc(F)cc1)[C@H](O)CN[C@H]1CC2(CCC2)Oc2c(-c3cnc[nH]3)cc(CC(C)C)cc21
READOUT UNITS: nM
MEASURED: 88
//
COMPOUND: CC(=O)N[C@@H](Cc1ccccc1)[C@H](O)CN[C@H]1CC2(CCC2)Oc2c1cc(CC(C)(C)C)nc2-c1ccncc1
READOUT UNITS: nM
MEASURED: 24
